Origin of the recorded values: paper PMC4086519

Tested on: NOK (oral human keratinocyte) cell lines
Assay: Sulphorhodamine B cytotoxicity assay
Assay type: cell-based
Details: NOK cells, 24 hours
measured metric: Cytotoxicity IC50 (µg/mL)
Field: numeric (µg/mL). Do not append units.

{"compound": "CCCCCCCCOC(=O)c1ccc(O)c(O)c1 [Protocatechuate octyl, octyl protocatechuate]", "units": "µg/mL", "Cytotoxicity IC50": 54.0}
{"compound": "CCCCCOC(=O)c1ccc(O)c(O)c1 [Protocatechuate pentyl, pentyl protocatechuate]", "units": "µg/mL", "Cytotoxicity IC50": 57.0}
{"compound": "CCCCCCCCCOC(=O)c1ccc(O)c(O)c1 [Protocatechuate nonyl, nonyl protocatechuate]", "units": "µg/mL", "Cytotoxicity IC50": 52.1}
{"compound": "CCCCCCCOC(=O)c1ccc(O)c(O)c1 [Protocatechuate heptyl, protocatechuate heptyl]", "units": "µg/mL", "Cytotoxicity IC50": 78.1}

Short answer please: Cytotoxicity IC50, NOK (oral human keratinocyte) cell lines, entry CCCCCCOC(=O)c1ccc(O)c(O)c1 [Protocatechuate hexyl, hexyl protocatechuate]
66.5

###

Test system: Trichophyton mentagrophytes
Experiment: Checkerboard synergism assay with fluconazole
Assay type: cell-based
measured metric: FIC index
Please give the numeric answer without any surrounding text.

{"molecule": "CCCCCCOC(=O)c1ccc(O)c(O)c1 [Protocatechuate hexyl, hexyl protocatechuate]", "FIC index": 0.72}
{"molecule": "CCCCCCCCCOC(=O)c1ccc(O)c(O)c1 [Protocatechuate nonyl, nonyl protocatechuate]", "FIC index": 1.0}
{"molecule": "CCCCCOC(=O)c1ccc(O)c(O)c1 [Protocatechuate pentyl, pentyl protocatechuate]", "FIC index": 1.0}

Consider the record given below.
Looking for the measured FIC index of CCCCCCCCOC(=O)c1ccc(O)c(O)c1 [Protocatechuate octyl, octyl protocatechuate] , can you help?
0.72

###

We begin with a simple list: items and their reported MIC.
System: Trichophyton mentagrophytes
Assay: Broth microdilution MIC (CLSI M38-A2, modified)
Assay type: cell-based
Details: Tm2, clinical isolate; 35°C, 7 days
Field: numeric (µg/mL). Do not append units.

Looking for the measured MIC of CCCOC(=O)c1ccc(O)c(O)c1 [Protocatechuate propyl] , can you help?
62.5

Record: COC(=O)c1ccc(O)c(O)c1 [Protocatechuate methyl]
62.5

Record: CCCCCCCCOC(=O)c1ccc(O)c(O)c1 [Protocatechuate octyl, octyl protocatechuate]
1.95

###

Tested on: Trichophyton mentagrophytes
Experiment: Checkerboard synergism assay with fluconazole
Assay type: cell-based
Conditions: Tm3 (ATCC 40131); checkerboard, 168 hours
measured metric: MIC, substances alone (µg/mL)
Field: numeric (µg/mL). Do not append units.

Below, 4 molecules whose answers are already recorded.
{"molecule": "CCCCCCOC(=O)c1ccc(O)c(O)c1 [Protocatechuate hexyl, hexyl protocatechuate]", "units": "µg/mL", "MIC, substances alone": 3.9}
{"molecule": "CCCCCCCOC(=O)c1ccc(O)c(O)c1 [Protocatechuate heptyl, protocatechuate heptyl]", "units": "µg/mL", "MIC, substances alone": 3.9}
{"molecule": "CCCCCCCCCOC(=O)c1ccc(O)c(O)c1 [Protocatechuate nonyl, nonyl protocatechuate]", "units": "µg/mL", "MIC, substances alone": 3.9}
{"molecule": "CCCCCCCCOC(=O)c1ccc(O)c(O)c1 [Protocatechuate octyl, octyl protocatechuate]", "units": "µg/mL", "MIC, substances alone": 3.9}

Consider the record given below.
Looking for the measured MIC, substances alone of CCCCCOC(=O)c1ccc(O)c(O)c1 [Protocatechuate pentyl, pentyl protocatechuate] , can you help?
7.8

###

We begin with a simple list: items and their reported MIC.
Tested on: Trichophyton rubrum
Test: Broth microdilution MIC (CLSI M38-A2, modified)
Assay type: cell-based
Settings: Tr2, T. rubrum clinical isolate; 35°C, 7 days
Field: numeric (µg/mL). Do not append units.

Below, 5 compounds whose answers are already recorded.
{"compound": "O=C(O)c1ccc(O)c(O)c1", "MIC [µg/mL]": 250}
{"compound": "CCCCCCCCCOC(=O)c1ccc(O)c(O)c1 [Protocatechuate nonyl, nonyl protocatechuate]", "MIC [µg/mL]": 3.9}
{"compound": "CCCCCCOC(=O)c1ccc(O)c(O)c1 [Protocatechuate hexyl, hexyl protocatechuate]", "MIC [µg/mL]": 1.95}
{"compound": "CCCCCCCCCCCCCCOC(=O)c1ccc(O)c(O)c1 [Protocatechuate tetradecyl]", "MIC [µg/mL]": 125}
{"compound": "CCCCOC(=O)c1ccc(O)c(O)c1 [Protocatechuate butyl]", "MIC [µg/mL]": 7.8}

Consider the record given below.
Looking for the measured MIC of CCCCCOC(=O)c1ccc(O)c(O)c1 [Protocatechuate pentyl, pentyl protocatechuate] , can you help?
7.8

###

System: Trichophyton rubrum
Experiment: Broth microdilution MIC (CLSI M38-A2, modified)
Type: cell-based
Settings: Tr2, T. rubrum clinical isolate; 35°C, 7 days
measured metric: MIC (mg/L)
Field: numeric (mg/L). Do not append units.

Short answer please: MIC, Trichophyton rubrum, entry CCOC(=O)c1ccc(O)c(O)c1 [Protocatechuate ethyl]
31.2

Record: COC(=O)c1ccc(O)c(O)c1 [Protocatechuate methyl]
31.2

###

System: Trichophyton mentagrophytes
Assay: Broth microdilution MIC (CLSI M38-A2, modified)
Type: cell-based
Settings: Tm1, clinical isolate; 35°C, 7 days
Method: To evaluate its antifungal activity, […] of dermatophytes were tested: two clinical strains of Trichophyton rubrum (Tr1 and Tr2), Trichophyton rubrum ATCC MYA 3108, two clinical strains of Trichophyton mentagrophytes (Tm1 and Tm2), and Trichophyton mentagrophytes ATCC 40131 (Tm3). […] The MIC reading was performed by spectrophotometry at 490 nm.
measured metric: log10(MIC) (log10 of the value in mg/L)
Hello, just confirming the data are log10 of MIC with units of mg/L.

Below, 5 compounds whose answers are already recorded.
{"compound": "CCCCCCCOC(=O)c1ccc(O)c(O)c1 [Protocatechuate heptyl, protocatechuate heptyl]", "log10(MIC)": 0.59}
{"compound": "CCCCOC(=O)c1ccc(O)c(O)c1 [Protocatechuate butyl]", "log10(MIC)": 0.89}
{"compound": "CCCCCCOC(=O)c1ccc(O)c(O)c1 [Protocatechuate hexyl, hexyl protocatechuate]", "log10(MIC)": 0.29}
{"compound": "CCCCCOC(=O)c1ccc(O)c(O)c1 [Protocatechuate pentyl, pentyl protocatechuate]", "log10(MIC)": 0.59}
{"compound": "CCCCCCCCCCCCOC(=O)c1ccc(O)c(O)c1 [Protocatechuate dodecyl]", "log10(MIC)": 2.40}

Short answer please: log10(MIC), Trichophyton mentagrophytes, entry CCCCCCCCOC(=O)c1ccc(O)c(O)c1 [Protocatechuate octyl, octyl protocatechuate]
0.29

Record: COC(=O)c1ccc(O)c(O)c1 [Protocatechuate methyl]
1.80

###

Test system: Trichophyton mentagrophytes
Assay: Broth microdilution MIC (CLSI M38-A2, modified)
Format: cell-based
Details: Tm1, clinical isolate; 35°C, 7 days
We begin with a simple list: items and their reported MIC.
Field: numeric (µg/mL). Do not append units.

Below, 3 compounds whose answers are already recorded.
{"compound": "CCCCCCCCCOC(=O)c1ccc(O)c(O)c1 [Protocatechuate nonyl, nonyl protocatechuate]", "test system": "Trichophyton mentagrophytes", "measured metric": "MIC", "experimental result": 3.9}
{"compound": "CCCOC(=O)c1ccc(O)c(O)c1 [Protocatechuate propyl]", "test system": "Trichophyton mentagrophytes", "measured metric": "MIC", "experimental result": 15.6}
{"compound": "CCOC(=O)c1ccc(O)c(O)c1 [Protocatechuate ethyl]", "test system": "Trichophyton mentagrophytes", "measured metric": "MIC", "experimental result": 31.2}

Looking for the measured MIC of CCCCCCCCCCOC(=O)c1ccc(O)c(O)c1 [Protocatechuate decyl] , can you help?
7.8

###

Tested on: Trichophyton mentagrophytes
Assay: Minimum fungicide concentration (MFC)
Format: cell-based
Conditions: Tm2, clinical isolate
We label by threshold. Values of MFC strictly beneath 4 µg/mL are 1. Values of 4 µg/mL and up are -1.

Before answering, review these 3 worked examples.
{"molecule": "CCCCCCCCOC(=O)c1ccc(O)c(O)c1 [Protocatechuate octyl, octyl protocatechuate]", "group": 1}
{"molecule": "COC(=O)c1ccc(O)c(O)c1 [Protocatechuate methyl]", "group": -1}
{"molecule": "CCCCCCCCCCCCCCOC(=O)c1ccc(O)c(O)c1 [Protocatechuate tetradecyl]", "group": -1}

Consider the molecule CCCCOC(=O)c1ccc(O)c(O)c1 [Protocatechuate butyl] . Is its MFC strictly less than 4 µg/mL?
-1

Record: CCCCCCCOC(=O)c1ccc(O)c(O)c1 [Protocatechuate heptyl, protocatechuate heptyl]
1

Record: CCOC(=O)c1ccc(O)c(O)c1 [Protocatechuate ethyl]
-1

Record: CCCOC(=O)c1ccc(O)c(O)c1 [Protocatechuate propyl]
-1

Record: CCCCCCCCCCCCCCCCCCOC(=O)c1ccc(O)c(O)c1 [Protocatechuate octadecyl]
-1

Record: CCCCCCCCCCCCCCCCOC(=O)c1ccc(O)c(O)c1 [Protocatechuate hexadecyl]
-1

Record: CCCCCOC(=O)c1ccc(O)c(O)c1 [Protocatechuate pentyl, pentyl protocatechuate]
-1

Record: O=C(O)c1ccc(O)c(O)c1
-1

Record: CCCCCCCCCCCCOC(=O)c1ccc(O)c(O)c1 [Protocatechuate dodecyl]
-1
